- assayed-system: HDAC1 (Homo sapiens)
- Construct: HDAC1 (full length, C-terminal His tag, C-terminal FLAG tag, BPS Bioscience, cat. #: 50051); FLAG (C)
- test-name: Recombinant HDAC µSPOT microarray binding assay;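 on pEC50: slides with spotted peptides incubated with six HDAC concentrations in HEPES buffer pH 7.4, spot intensities fitted by four-parameter logistic, EC50 as enzyme concentration giving half-maximal binding signal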
pEC50: −log10 of the molar value. Non-standard residues stand in square brackets, D forms with d. Residues, ends and D or L forms follow the SMILES beside them. *: point of attachment. Asu = N[C@@H](CCCCCC(=O)O)C(=O)O; NHOH = ON*

molecule: CC(=O)N[C@@H](C)C(=O)N[C@H](C(=O)NCC(=O)NCC(=O)N[C@H](C(=O)N[C@@H](CCCCCC(=O)NO)C(=O)N[C@@H](CCCCN)C(=O)N1CCC[C@H]1C(=O)N[C@@H](Cc1c[nH]cn1)C(=O)N[C@@H](CCCNC(=N)N)C(=O)N[C@@H](Cc1ccc(O)cc1)C(=O)N[C@@H](CCCNC(=N)N)C(=O)N1CCC[C@H]1C(=O)NCC(=O)N[C@H](C(=O)N[C@H](C(=O)N[C@@H](Cc1c[nH]c2ccccc12)C(N)=O)C(C)C)[C@@H](C)O)C(C)C)[C@@H](C)O [15a] (Ac-ATGGV[Asu](NHOH)KPHRYRPGTVW-NH2)
pEC50: 8.30
--
molecule: CC(=O)N1CCC[C@H]1C(=O)N[C@@H](CCCNC(=N)N)C(=O)N[C@@H](CCCCN)C(=O)N[C@@H](CCC(N)=O)C(=O)N[C@@H](CC(C)C)C(=O)N[C@@H](C)C(=O)N[C@H](C(=O)N[C@@H](CCCCN)C(=O)N[C@@H](C)C(=O)N[C@@H](C)C(=O)N[C@@H](CCCNC(=N)N)C(=O)N[C@@H](CCCCCC(=O)NO)C(=O)N[C@@H](CO)C(=O)N[C@@H](C)C(=O)N1CCC[C@H]1C(=O)N[C@@H](C)C(=O)N[C@@H](Cc1c[nH]c2ccccc12)C(N)=O)[C@@H](C)O [14a] (Ac-PRKQLATKAAR[Asu](NHOH)SAPAW-NH2)
pEC50: 8.04
--
molecule: CC(=O)N[C@@H](CC(C)C)C(=O)NCC(=O)N[C@@H](CCCCN)C(=O)NCC(=O)NCC(=O)N[C@@H](C)C(=O)N[C@@H](CCCCCC(=O)NO)C(=O)N[C@@H](CCCNC(=N)N)C(=O)N[C@@H](Cc1c[nH]cn1)C(=O)N[C@@H](CCCNC(=N)N)C(=O)N[C@@H](CCCCN)C(=O)N[C@H](C(=O)N[C@@H](CC(C)C)C(=O)N[C@@H](CCCNC(=N)N)C(=O)N[C@@H](CC(=O)O)C(=O)N[C@@H](CC(N)=O)C(=O)N[C@@H](Cc1c[nH]c2ccccc12)C(N)=O)C(C)C [16a] (Ac-LGKGGA[Asu](NHOH)RHRKVLRDNW-NH2)
pEC50: 7.90

###

- assayed-system: HDAC2 (Homo sapiens)
- Construct: HDAC2 (full length, C-terminal His tag, BPS Bioscience, cat. #: 50002); purchased BPS Bioscience 50002
- test-name: Recombinant HDAC µSPOT microarray binding assay;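 on Bottom (Value): Cellulose-bound peptide spots on slides incubated with six HDAC enzyme concentrations, binding intensity read, four-parameter variable-slope fit, EC50 is enzyme concentration giving half-maximal binding, in HEPES buffer pH 7.4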;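 on Bottom (Value): relative spot intensity from the six enzyme-concentration slides imaged together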
- conditions-used: HDAC2 microarray dose-response curve fit, bottom plateau; X = Asuha; sheet Fig. 3 HDAC2
Quick reference: Bottom (Value) of the listed items.
readout-type: Bottom (Value)

substance: H2A 55-70 (LEYLTAEILELAGNAA; UniProt P0C0S8 56-71, looked up, fragment)
observed-value: 0.01
--
substance: H2B 91-106 (SREIQTAVRLLLPGEL; UniProt P62807 92-107, looked up, fragment)
observed-value: 0.03
--
substance: H2A 16-31 (TRSSRAGLQFPVGRVH; microarray-immobilized; UniProt P0C0S8 17-32, looked up, fragment)
observed-value: 0.04
--
substance: H2A 46-61 (GAPVYLAAVLEYLTAE; UniProt P0C0S8 47-62, looked up, fragment)
observed-value: 0.01
--
substance: H2A 19-34 (SRAGLQFPVGRVHRLL; UniProt P04908 20-35, looked up, fragment)
observed-value: 0.04
--
substance: H2A 100-115 (VTIAQGGVLPNIQAVL; UniProt P0C0S8 101-116, looked up, fragment)
observed-value: 0.02
--
substance: H2B 61-76 (IMNSFVNDIFERIAGE; UniProt P62807 62-77, looked up, fragment)
observed-value: 0.02
--
substance: H2A 49-64 (VYLAAVLEYLTAEILE; UniProt P0C0S8 50-65, looked up, fragment)
observed-value: 0.02
--
substance: H2A 37-52 (GNYSERVGAGAPVYLA; UniProt P04908 38-53, looked up, fragment)
observed-value: 0.01
--
substance: H2A 79-94 (IPRHLQLAIRNDEELN; UniProt P0C0S8 80-95, looked up, fragment)
observed-value: 0.02
--
substance: H2B 67-82 (NDIFERIAGEASRLAH; UniProt P06899 68-83, looked up, fragment)
observed-value: 0.02
--
substance: H2A 40-55 (AERVGAGAPVYLAAVL; UniProt P0C0S8 41-56, looked up, fragment)
observed-value: -0.05
--
substance: H2B 58-73 (AMGIMNSFVNDIFERI; UniProt P06899 59-74, looked up, fragment)
observed-value: 0.03
--
substance: H2B 64-79 (SFVNDIFERIAGEASR; UniProt P62807 65-80, looked up, fragment)
observed-value: 0.01

###

- assayed-system: HDAC4 (Homo sapiens)
- Construct: purchased BPS Bioscience 50004
- Sequence (P56524 627-1084): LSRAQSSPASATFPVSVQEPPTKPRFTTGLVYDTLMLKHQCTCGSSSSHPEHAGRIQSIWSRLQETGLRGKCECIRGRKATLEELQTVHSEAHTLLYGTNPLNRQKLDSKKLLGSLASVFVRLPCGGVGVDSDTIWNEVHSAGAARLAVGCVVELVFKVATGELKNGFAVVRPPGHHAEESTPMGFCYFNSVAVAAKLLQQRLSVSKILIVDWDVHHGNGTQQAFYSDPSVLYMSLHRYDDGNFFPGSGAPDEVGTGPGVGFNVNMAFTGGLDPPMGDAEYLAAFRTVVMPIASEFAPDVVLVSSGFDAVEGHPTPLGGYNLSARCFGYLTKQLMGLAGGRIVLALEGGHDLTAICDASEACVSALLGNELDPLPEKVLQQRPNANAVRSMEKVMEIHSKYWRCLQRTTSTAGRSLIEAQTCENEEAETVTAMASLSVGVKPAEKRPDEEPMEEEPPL
- test-name: HDAC inhibition assay (fluorogenic, Ac-Leu-Gly-Lys(Tfa)-AMC)
- Assay type: biochemical
- conditions-used: inhibitor 50 µM, 2 internal replicates, read-out: residual enzymatic activity relative to control wells
Non-standard residues stand in square brackets, D forms with d. Residues, ends and D or L forms follow the SMILES beside them. *: point of attachment. Asu = N[C@@H](CCCCCC(=O)O)C(=O)O; NHOH = ON*

molecule: CC(=O)NCC(=O)NCC(=O)N[C@@H](CCCCCC(=O)NO)C(=O)N[C@@H](C)C(=O)N[C@@H](CCCNC(=N)N)C(=O)N[C@@H](C)C(=O)N[C@@H](CCCCN)C(=O)N[C@@H](C)C(=O)N[C@@H](CCCCN)C(=O)N[C@H](C(=O)N[C@@H](CCCNC(=N)N)C(=O)N[C@@H](CO)C(=O)N[C@@H](CO)C(=O)N[C@@H](CCCNC(=N)N)C(=O)N[C@@H](C)C(=O)NCC(=O)N[C@@H](Cc1c[nH]c2ccccc12)C(N)=O)[C@@H](C)O [9a] (Ac-GG[Asu](NHOH)ARAKAKTRSSRAGW-NH2)
assayed-system: HDAC4 (Homo sapiens)
scale-unit: %
remaining activity at 50 µM: 57.5

###

- assayed-system: HDAC2 (Homo sapiens, UniProt Q92769)
- Sequence (Q92769 whole entry): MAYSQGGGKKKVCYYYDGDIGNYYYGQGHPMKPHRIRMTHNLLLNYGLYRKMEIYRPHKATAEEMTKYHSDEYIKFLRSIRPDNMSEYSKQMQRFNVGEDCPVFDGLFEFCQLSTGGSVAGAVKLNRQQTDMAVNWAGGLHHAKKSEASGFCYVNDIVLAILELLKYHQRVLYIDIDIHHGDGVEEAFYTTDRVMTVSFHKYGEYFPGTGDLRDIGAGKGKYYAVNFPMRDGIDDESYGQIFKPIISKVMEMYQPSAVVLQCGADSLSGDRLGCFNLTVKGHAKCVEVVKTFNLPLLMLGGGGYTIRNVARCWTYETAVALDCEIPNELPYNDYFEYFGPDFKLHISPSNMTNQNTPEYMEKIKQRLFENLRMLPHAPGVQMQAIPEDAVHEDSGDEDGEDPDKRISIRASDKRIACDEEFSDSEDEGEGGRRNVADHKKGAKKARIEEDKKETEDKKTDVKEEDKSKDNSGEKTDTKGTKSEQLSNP
Non-standard residues stand in square brackets, D forms with d. Residues, ends and D or L forms follow the SMILES beside them. *: point of attachment. Asu = N[C@@H](CCCCCC(=O)O)C(=O)O; NHOH = ON*

compound: CC(=O)N[C@@H](CC(C)C)C(=O)NCC(=O)N[C@@H](CCCCN)C(=O)NCC(=O)NCC(=O)N[C@@H](C)C(=O)N[C@@H](CCCCCC(=O)NO)C(=O)N[C@@H](CCCNC(=N)N)C(=O)N[C@@H](Cc1c[nH]cn1)C(=O)N[C@@H](CCCNC(=N)N)C(=O)N[C@@H](CCCCN)C(=O)N[C@H](C(=O)N[C@@H](CC(C)C)C(=O)N[C@@H](CCCNC(=N)N)C(=O)N[C@@H](CC(=O)O)C(=O)N[C@@H](CC(N)=O)C(=O)N[C@@H](Cc1c[nH]c2ccccc12)C(N)=O)C(C)C [16a] (Ac-LGKGGA[Asu](NHOH)RHRKVLRDNW-NH2)
assayed-system: HDAC2 (Homo sapiens, UniProt Q92769)
Ki: 18.3 nM

###

- assayed-system: HDAC1 (Homo sapiens, UniProt Q13547)
- Construct: HDAC1 (full length, C-terminal His tag, C-terminal FLAG tag, BPS Bioscience, cat. #: 50051); FLAG (C); purchased BPS Bioscience 50051
- Sequence (Q13547 whole entry): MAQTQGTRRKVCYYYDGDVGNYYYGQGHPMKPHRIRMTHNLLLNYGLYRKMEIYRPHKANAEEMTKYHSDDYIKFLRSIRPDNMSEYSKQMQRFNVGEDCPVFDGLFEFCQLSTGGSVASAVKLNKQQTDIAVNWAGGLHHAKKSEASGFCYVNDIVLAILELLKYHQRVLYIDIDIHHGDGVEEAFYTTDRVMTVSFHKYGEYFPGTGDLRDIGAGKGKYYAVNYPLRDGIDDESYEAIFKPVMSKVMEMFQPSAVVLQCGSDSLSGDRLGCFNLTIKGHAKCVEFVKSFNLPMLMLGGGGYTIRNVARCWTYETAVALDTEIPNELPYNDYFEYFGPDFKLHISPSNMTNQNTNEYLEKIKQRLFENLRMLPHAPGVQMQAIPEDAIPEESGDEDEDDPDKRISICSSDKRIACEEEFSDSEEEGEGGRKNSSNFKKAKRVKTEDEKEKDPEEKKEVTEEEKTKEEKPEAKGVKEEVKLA
- test-name: Recombinant HDAC µSPOT microarray binding assay;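 on Bottom (dose-response fit): relative spot intensity from the six enzyme-concentration slides imaged together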
- conditions-used: µSPOT microarray, recombinant HDAC1, Fig. 3; X = Asuha; fitted bottom plateau of the binding curve
Quick reference: Bottom (dose-response fit) of the listed items.

substance: H2B 64-79 (SFVNDIFERIAGEASR; UniProt P62807 65-80, looked up, fragment)
assayed-system: HDAC1 (Homo sapiens, UniProt Q13547)
Bottom (dose-response fit): 0.03

substance: H2A 49-64 (VYLAAVLEYLTAEILE; UniProt P0C0S8 50-65, looked up, fragment)
assayed-system: HDAC1 (Homo sapiens, UniProt Q13547)
Bottom (dose-response fit): 0.01

substance: H2A 46-61 (GAPVYLAAVLEYLTAE; UniProt P0C0S8 47-62, looked up, fragment)
assayed-system: HDAC1 (Homo sapiens, UniProt Q13547)
Bottom (dose-response fit): 0.02

substance: H2A 79-94 (IPRHLQLAIRNDEELN; UniProt P0C0S8 80-95, looked up, fragment)
assayed-system: HDAC1 (Homo sapiens, UniProt Q13547)
Bottom (dose-response fit): 0.02

substance: H2A 100-115 (VTIAQGGVLPNIQAVL; UniProt P0C0S8 101-116, looked up, fragment)
assayed-system: HDAC1 (Homo sapiens, UniProt Q13547)
Bottom (dose-response fit): 0.02

substance: H2A 55-70 (LEYLTAEILELAGNAA; UniProt P0C0S8 56-71, looked up, fragment)
assayed-system: HDAC1 (Homo sapiens, UniProt Q13547)
Bottom (dose-response fit): 0.02

substance: H2A 37-52 (GNYSERVGAGAPVYLA; UniProt P04908 38-53, looked up, fragment)
assayed-system: HDAC1 (Homo sapiens, UniProt Q13547)
Bottom (dose-response fit): 0.01

substance: H2B 58-73 (AMGIMNSFVNDIFERI; UniProt P06899 59-74, looked up, fragment)
assayed-system: HDAC1 (Homo sapiens, UniProt Q13547)
Bottom (dose-response fit): 0.02
